# assayed-target: UniProt:P18825
# Sequence (P18825 whole entry): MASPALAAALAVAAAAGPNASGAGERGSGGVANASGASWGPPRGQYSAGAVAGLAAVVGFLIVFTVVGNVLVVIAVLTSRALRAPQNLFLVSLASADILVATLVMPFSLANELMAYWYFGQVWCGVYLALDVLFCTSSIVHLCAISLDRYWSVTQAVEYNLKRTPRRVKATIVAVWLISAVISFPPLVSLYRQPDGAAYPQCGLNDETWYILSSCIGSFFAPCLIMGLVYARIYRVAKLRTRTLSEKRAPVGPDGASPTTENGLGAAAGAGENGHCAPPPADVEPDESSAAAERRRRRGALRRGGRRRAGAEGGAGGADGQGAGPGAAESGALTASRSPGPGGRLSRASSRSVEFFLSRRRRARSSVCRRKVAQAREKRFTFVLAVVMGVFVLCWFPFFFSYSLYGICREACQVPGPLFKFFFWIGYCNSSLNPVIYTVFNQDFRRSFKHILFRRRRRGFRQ
experimental-readout: Ki (nM)
// note: answer is a bare numeric in nM

input: For the compound COc1cccc2c1CC[C@H]1CN(CCn3c(=O)[nH]c4c(sc5cccnc54)c3=O)C[C@@H]21 , what Ki is on record?
output: 16.6
